Data origin, for the record: patent US11944626B2

Biological target: UniProt P47895
Sequence (P47895 whole entry): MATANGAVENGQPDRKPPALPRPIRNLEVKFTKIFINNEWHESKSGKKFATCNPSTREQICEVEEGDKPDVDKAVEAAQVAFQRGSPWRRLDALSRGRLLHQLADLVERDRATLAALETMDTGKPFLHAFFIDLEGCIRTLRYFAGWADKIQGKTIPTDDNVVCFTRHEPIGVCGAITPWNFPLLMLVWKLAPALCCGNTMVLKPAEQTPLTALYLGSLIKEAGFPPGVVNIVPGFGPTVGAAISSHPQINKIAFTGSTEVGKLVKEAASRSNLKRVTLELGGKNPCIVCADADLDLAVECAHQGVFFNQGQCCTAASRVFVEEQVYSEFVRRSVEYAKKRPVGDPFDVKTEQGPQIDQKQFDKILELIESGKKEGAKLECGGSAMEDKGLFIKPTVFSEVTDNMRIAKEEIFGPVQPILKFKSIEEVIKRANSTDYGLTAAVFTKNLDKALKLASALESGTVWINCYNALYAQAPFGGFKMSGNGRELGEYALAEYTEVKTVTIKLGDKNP
Assay: Inhibition of ALDH isoenzymes (NAD(P)H formation at 340 nm, purified recombinant enzyme)
Conditions: 100-200 nM enzyme, 200 μM NAD+, 100 μM propionaldehyde, pH 7.5, 25° C.
pIC50: −log10 of the molar value.
Documented pIC50 across a set of molecules

Smiles repr: Cc1ccccc1-n1c(SCc2cccc(F)c2)nc2[nH]ncc2c1=O
pIC50: < 4.70
--
Smiles repr: CCn1ncc2c(=O)n(-c3ccccc3C)c(SCc3cccc(F)c3)nc21
pIC50: < 5.00

// next item, pIC50 requested
Ask | Kindly state the measured pIC50 obtained for Cc1ccccc1-n1c(OCc2cc3ccccc3s2)nc2c(cnn2C)c1=O with UniProt P47895.
Reply | < 5.00

----------
Biological target: ALDH2 (Homo sapiens, UniProt P05091)
Sequence (P05091 18-517): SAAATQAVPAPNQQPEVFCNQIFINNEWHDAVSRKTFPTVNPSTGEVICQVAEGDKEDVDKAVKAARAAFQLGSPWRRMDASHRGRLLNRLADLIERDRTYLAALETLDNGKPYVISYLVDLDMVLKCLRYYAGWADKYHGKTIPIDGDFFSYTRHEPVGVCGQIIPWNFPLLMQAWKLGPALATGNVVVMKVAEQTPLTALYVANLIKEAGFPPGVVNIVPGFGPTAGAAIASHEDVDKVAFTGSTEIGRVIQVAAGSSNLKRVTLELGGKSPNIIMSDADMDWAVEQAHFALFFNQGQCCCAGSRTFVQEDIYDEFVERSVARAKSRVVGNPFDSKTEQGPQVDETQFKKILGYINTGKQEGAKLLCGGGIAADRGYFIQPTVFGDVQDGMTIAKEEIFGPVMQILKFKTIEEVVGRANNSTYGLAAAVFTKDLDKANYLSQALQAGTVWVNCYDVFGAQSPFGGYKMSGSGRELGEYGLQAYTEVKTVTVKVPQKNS
Test: Inhibition of ALDH isoenzymes (NAD(P)H formation at 340 nm, purified recombinant enzyme);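 on ALDH2 % Control at 20 μM: run at 25 °C, started by adding substrate after 2 min preincubation, with 100-200 nM ALDH2, 200 µM NAD+, 100 µM propionaldehyde, 1% DMSO in BES buffer pH 7.5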
Format: biochemical
Conditions: compound at 20 μM; read-out: ALDH2 % Control at 20 μM
Documented remaining activity at 20 µM across a set of compounds
Entry rule: numbers only, all in %.

Compound: CC(Sc1nc2c(cnn2C)c(=O)n1-c1ccccc1)c1cccc(F)c1 (centres unmarked)
Measured on: ALDH2 (Homo sapiens, UniProt P05091)
Outcome measure: remaining activity at 20 µM
Units of measure: %
Value measured: 94

Ask | Kindly state the measured remaining activity at 20 µM obtained for CC(Sc1nc2c(cnn2C)c(=O)n1-c1ccccc1)c1ccccn1 (centres unmarked) with ALDH2 (Homo sapiens, UniProt P05091).
Reply | 92

Ask | Now give it for CC(Sc1nc2c(cnn2C)c(=O)n1-c1ccccc1)c1ccccc1 (racemic) too.
Reply | 107

Ask | Now give it for Cn1ncc2c(=O)n(-c3ccccc3)c(SCC(=O)c3ccccc3)nc21 too.
Reply | 91

Ask | Now give it for Cc1ccccc1-n1c(OCc2cccc(F)c2)nc2c(cnn2C)c1=O too.
Reply | 95

----------
Target: UniProt:P05091
Experiment: Inhibition of ALDH isoenzymes (NAD(P)H formation at 340 nm, purified recombinant enzyme)
Type: biochemical
Conditions: compound at 20 μM; read-out: ALDH2 % Control at 20 μM
Documented remaining activity at 20 µM across a set of compounds
Entry rule: numbers only, all in %.

Compound: Cn1ncc2c(=O)n(-c3ccccc3)c(CNc3cccc(F)c3)nc21
Measured on: UniProt:P05091
Outcome measure: remaining activity at 20 µM
Value measured: 89

Ask | Fill in: remaining activity at 20 µM of Cc1ccccc1-n1c(NCc2cccc(F)c2)nc2[nH]ncc2c1=O is ___
Reply | 96

Ask | Now give it for Cn1ncc2c(=O)n(-c3ccccc3)c(SCc3ccc(C=O)cc3)nc21 too.
Reply | 89

Ask | Now give it for CC(Oc1nc2c(cnn2C)c(=O)n1-c1ccccc1)c1ccccc1 (stereo not drawn) too.
Reply | 92

Ask | Now give it for CCn1cc2c(=O)n(-c3ccccc3C)c(SCc3cccc(F)c3)nc2n1 too.
Reply | 91

Ask | Now give it for Cn1ncc2c(=O)n(-c3ccccc3)c(CCc3cccc(F)c3)nc21 too.
Reply | 98

Ask | Now give it for Cc1ccccc1-n1c(NCCc2cccc(F)c2)nc2c(cnn2C)c1=O too.
Reply | 94

Ask | Now give it for CC(C)CCSc1nc2c(cnn2C)c(=O)n1-c1ccccc1 too.
Reply | 96

Ask | Now give it for Cn1ncc2c(=O)n(-c3ccc(Cl)cc3)c(SCc3cccc(F)c3)nc21 too.
Reply | 153
